system: NCI-H522 lung; experiment: NCI tumour cell line growth inhibition, 48 h
Kindly return Y if reported TGI is no lower than 40 µM; return N if it is lower.

Look over these answered cases.
| molecule | labelValue |
| --- | --- |
| O=C1C(=O)c2c(nc3ccc(Cl)cn23)-c2ccccc21 | N |
| O=S(=O)(c1ccccc1)C(CN1CCCCC1)S(=O)(=O)c1ccccc1 | Y |
| Nc1ncnc2[nH]ncc12 | N |
| CC(C)CC(CC1=CCC2CC1C2(C)C)C1=C(O)C(C)(C)C(=O)C(C)(C)C1=O (configuration not stated) | N |
| COc1cc2nc(N3CCCC3)nc(NCC3CCCCC3)c2cc1OC | N |
| CCOc1ccc2nc(NC(=O)c3c/c(=N\NC(=O)C[N+](C)(C)C)c4ccc(O)cc4o3)sc2c1 | N |
| O=c1[nH]c2ccccc2nc1-c1c[nH]c2ccccc12 | Y |
| COC(=O)c1ccc2c(O)c(O)ccc2c1 | N |

Record O=NC1C(Cl)C2CC1C1C(Br)C(Br)CC21 (configuration not stated) ; criterion: TGI no lower than 40 µM. Met? Y

Record `C[C@]12CC[C@H]3[C@@H](CCC4=CC(=O)CC[C@@H]43)[C@@H]1CC[C@@H]2OC(=O)CCc1ccccc1` ; criterion: TGI no lower than 40 µM. Met? Y

Record `O=C(O[C@H]1[C@@H](O)[C@H](n2cnc3c(Cl)ncnc32)O[C@@H]1COC(c1ccccc1)(c1ccccc1)c1ccccc1)c1ccccc1` ; criterion: TGI no lower than 40 µM. Met? Y

Record `COc1ccc(N=c2ssc3c(=S)ssc23)cc1` ; criterion: TGI no lower than 40 µM. Met? N

Record CCN1CCC(CCOC)(CN2c3ccccc3Sc3ccc(Cl)cc32)C1 (configuration not stated) ; criterion: TGI no lower than 40 µM. Met? N

Record C#CCOCC12C=CC(O1)C1C(=O)N(C)C(=O)C12 (configuration not stated) ; criterion: TGI no lower than 40 µM. Met? Y

* * *

system: SK-MEL-28 melanoma; experiment: NCI tumour cell line growth inhibition, 48 h; in the data active means GI50 below about 0.43 µM; inactive means the rest
Assign a class; possible classes are active, inactive

Look over these answered cases.
| compound | labelValue |
| --- | --- |
| N=C(N)c1ccc(N2CCCN(c3ccc(C(=N)N)cc3)CC2)cc1 | inactive |
| CC1=C(CCC(C)N(C)Cc2ccc(OCCCN3CCCC3)cc2)C(C)(C)CCC1 (centres undefined) | inactive |
| CC(C)(C)c1n[nH]c(=S)n(/N=C/c2ccc(F)c(Oc3ccccc3)c2)c1=O | inactive |
| Cc1ccc(-c2cc(-c3ccc(C)cc3)nc(NCCNc3ccnc4cc(Cl)ccc34)n2)cc1 | inactive |
| COc1ccc(-c2cc(-c3ccccc3)nc(SCCCC(=O)NO)n2)cc1 | inactive |

Now turn to the next compound.
In this assay, the call recorded for `Cc1cc(N/N=C/c2nc(-c3ccc(Br)cc3)oc2C)c2cc(Cl)ccc2n1` was what? inactive

* * *

system: OVCAR-5 ovarian; assay: NCI tumour cell line growth inhibition, 48 h
Reported values of TGI for individual entries

Worked examples, 5 compounds total:
| structureString | measuredOn | TGI |
| --- | --- | --- |
| COC(=O)Cn1c2c(c3c(O)cccc31)C(=O)c1ccccc1-2 | OVCAR-5 ovarian | > 100 µM |
| CN(C)c1ccc(/C=N\NC(=O)CSCC(=O)N/N=C/c2ccc(N(C)C)cc2)cc1 | OVCAR-5 ovarian | > 100 µM |
| Cc1ccc(/C=N/Nc2cnccn2)s1 | OVCAR-5 ovarian | > 100 µM |
| CNC(=O)N1CN(c2ccccc2)C2(CCN(CCCC(=O)c3ccc(F)cc3)CC2)C1=O | OVCAR-5 ovarian | 29 µM |
| CN(/N=C(\C(=O)O)c1ccccc1)C1=NCCCN1 | OVCAR-5 ovarian | > 100 µM |

Suppose we examine the compound `CC(C)(C)c1n[nH]c(=S)n(/N=C/c2ccc(F)c(Oc3ccccc3)c2)c1=O` ; what TGI value has been reported? > 100 µM

* * *

test system: NCI-H460 lung; test: NCI tumour cell line growth inhibition, 48 h
Reported values of TGI for individual entries

Worked examples, 5 molecules total:
| molecule | TGI |
| --- | --- |
| COc1ccc(-c2cc(-c3ccccc3)nc(SCCCC(=O)NO)n2)cc1 | 5.65 µM |
| O=c1oc2ccccc2c(Nc2ccc3c(c2)S(=O)(=O)c2ccccc2O3)c1[N+](=O)[O-] | 91.7 µM |
| c1ccc2c(C3NCCc4[nH]cnc43)cccc2c1 (stereo not given) | > 100 µM |
| COc1nc2c(c(=O)n1C)N(C(C)=O)C1C(N2)OCC(OC(C)=O)C1OC(C)=O (stereo not given) | > 10 µM |
| C[C@]12CCC3[C@@H](CC[C@@H]4c5nonc5CC[C@]34C)C1CCC(=O)N2 (stereo not given in full) | > 100 µM |

Suppose we examine the molecule `COC(=O)[C@@H]1CN(C(=O)CCc2ccccc2)C(=O)N1C(=O)OCc1ccccc1` ; what TGI value has been reported? > 100 µM

Suppose we examine the molecule `COc1ccc(-c2n[nH]nc2-c2cc(OC)c3c(c2OC)OCO3)cc1` ; what TGI value has been reported? 15.9 µM

Suppose we examine the molecule `CCC1(CC)CC(=NNS(=O)(=O)c2ccc(C)cc2)C1` ; what TGI value has been reported? > 100 µM

Suppose we examine the molecule `Cc1ccc(-c2nc3ccc(Cl)cc3[nH]2)cc1` ; what TGI value has been reported? > 100 µM

Suppose we examine the molecule C[Si](C)(C)OC1(C#N)C2C3CC4C2C(=O)C2C4C3C21 (stereo not given) ; what TGI value has been reported? > 100 µM

* * *

test system: HOP-92 NSCLC; assay: NCI tumour cell line growth inhibition, 48 h
valueType: GI50

| structureString | GI50 |
| --- | --- |
| COc1ccc(-c2cc(-c3ccccc3)nc(SCCCC(=O)NO)n2)cc1 | 1710 nM |
| O[C@H]1CO[C@H]2[C@@H]1OC[C@@H]2Oc1ccc(Nc2ccnc(Nc3ccc(O[C@H]4CO[C@H]5[C@@H]4OC[C@@H]5O)c(Cl)c3)n2)cc1Cl | 1520 nM |
| Cc1cc2c3ccc(C)[n+](C)c3ccc2n1C | 1970 nM |

Now turn to the next molecule.
Suppose we examine the molecule `C[C@]12CC[C@H]3[C@@H](CCC4=CC(=O)CC[C@@H]43)[C@@H]1CC[C@@H]2OC(=O)CCc1ccccc1` ; what GI50 value has been reported? 20100 nM

* * *

system: SW-620 colon; test: NCI tumour cell line growth inhibition, 48 h; in the data active = GI50 below about 0.43 µM; inactive = the rest
Assign a class; possible classes are active, inactive

Look over these answered cases.
| compound | labelValue |
| --- | --- |
| O=C(C1CCCCC1)[C@@H]1[C@]2(C(=O)NC3CCCCC32)[C@@H]2CCCN2[C@@]12C(=O)NC1CCC(Cl)CC12 (stereo not given in full) | inactive |
| O=C(/C(=C/c1ccccc1)CN1CCCCC1)c1ccccc1 | active |
| O=C1c2ccccc2-c2c1c1ccc([N+](=O)[O-])cc1c(=O)n2CCCBr | inactive |

In this assay, the call recorded for `COc1ccc(-c2cc(-c3ccccc3)nc(SCCCC(=O)NO)n2)cc1` was what? inactive

* * *

test system: U251 CNS; experiment: NCI tumour cell line growth inhibition, 48 h
Reported values of log10 TGI for individual entries
// stored as log10 of TGI expressed in µM

Worked examples, 5 compounds total:
| compound | log10 TGI |
| --- | --- |
| O=C(N/N=C/c1ccc2c(c1)CCC2)c1ccccc1O | 1.53 |
| CN(C(=O)Cc1cc(Cl)c(Cl)cc1N=C=S)[C@H]1CCCC[C@@H]1N1CCCC1 | 1.45 |
| Cc1cc2c3ccc(C)[n+](C)c3ccc2n1C | 1.18 |
| COc1ccc(N=c2ssc3c(=S)ssc23)cc1 | 1.99 |
| N#Cc1c(N)oc(-c2cccc([N+](=O)[O-])c2)c1C#N | 1.98 |

Suppose we examine the compound CC1=C(N2CC2)C(=O)c2nc3n(c2C1=O)CCC3OC(=O)CCl (configuration not stated) ; what log10 TGI value has been reported? -0.63

Suppose we examine the compound CCC1C(c2cc(OC)c(OC)c(OC)c2)c2cc3c(cc2OC1N1CCCC1)OCO3 (configuration not stated) ; what log10 TGI value has been reported? 1.07

* * *

Reported values of TGI for individual entries
system: UO-31 renal; assay: NCI tumour cell line growth inhibition, 48 h

Worked examples, 5 molecules total:
| molecule | measValue |
| --- | --- |
| COc1cc(/C=C2/CCS(=O)(=O)c3ccc(C)cc3C2=O)cc(OC)c1OC | 23.4 µM |
| COC(=O)C1CC2(CCC1=O)Cc1ccccc1C2=O (stereo unspecified) | > 100 µM |
| CN(C(=O)Cc1cc(Cl)c(Cl)cc1N=C=S)[C@H]1CCCC[C@@H]1N1CCCC1 | 29.1 µM |
| C=C1CC2OC2(C(=O)O[C@H]2CCC3[C@@H]4CCC5=CC(=O)CC[C@]5(C)C4CC[C@@]32C)C1=O (stereo partly specified) | 15.4 µM |
| C=CC(=O)N(C)[C@H]1C[C@H]2OC(C)(C1OC)n1c3ccccc3c3c4c(c5c6ccccc6n2c5c31)C(=O)NC4 (stereo partly specified) | 0.0854 µM |

Suppose we examine the molecule `Cc1ccccc1N=Nc1ccc(N=Nc2c(O)ccc3ccccc23)c(C)c1` ; what TGI value has been reported? > 100 µM

Suppose we examine the molecule COc1ccc(N2C(=O)C3c4[nH]c5ccc(C)cc5c4C4CCC(C)CC4C3C2=O)cc1 (stereo unspecified) ; what TGI value has been reported? > 100 µM

Suppose we examine the molecule `CN(C)CCCN1c2ccccc2CCc2ccc(Cl)cc21` ; what TGI value has been reported? 19.7 µM

Suppose we examine the molecule `Cc1cc2c3ccc(C)[n+](C)c3ccc2n1C` ; what TGI value has been reported? > 100 µM

Suppose we examine the molecule `Cc1ccc(NC(=O)/C=C/c2ccccc2)c(C(N)=O)c1` ; what TGI value has been reported? > 60 µM

Suppose we examine the molecule `N#C/C(=C\c1c(-c2ccccc2)[nH]c2ccccc12)S(=O)(=O)c1ccccc1` ; what TGI value has been reported? > 61.7 µM

Suppose we examine the molecule `Cc1cc2c(C)n(Cc3ccc(Cl)cc3Cl)nc2c(C#N)c1C` ; what TGI value has been reported? > 95.3 µM
